test system: PC-14; test: relative viability (nuclei count vs DMSO), 5 days (fraction); higher = more cells survive; conditions: first compound 0.2 µM
parameter: relative viability
I'd appreciate a reply containing only the number, no unit.

INSERT INTO results (molecule, parameter, valuereported) VALUES
  ('Cc1csc(=NC2CCCCC2)n1/N=C/c1ccc(O)c(O)c1O [MIM1] + Cc1cc(Nc2cc(N3CCN(C)CC3)nc(Sc3ccc(NC(=O)C4CC4)cc3)n2)n[nH]1 [Tozasertib] (partner 0.1 µM)', 'relative viability', 0.526),
  ('Cc1csc(=NC2CCCCC2)n1/N=C/c1ccc(O)c(O)c1O [MIM1] + CC1(C)CCC(c2ccc(Cl)cc2)=C(CN2CCN(c3ccc(C(=O)NS(=O)(=O)c4ccc(N[C@H](CCN5CCOCC5)CSc5ccccc5)c(S(=O)(=O)C(F)(F)F)c4)cc3)CC2)C1 [Navitoclax] (partner 0.5 µM)', 'relative viability', 1.02);

So what does the record say about relative viability for CCNC(=O)c1noc(-c2cc(C(C)C)c(O)cc2O)c1-c1ccc(CN2CCOCC2)cc1 [Luminespib] + CC(=O)Nc1cccc(-n2c(=O)n(C3CC3)c(=O)c3c(Nc4ccc(I)cc4F)n(C)c(=O)c(C)c32)c1 [Trametinib] (partner 0.02 µM) ?
0.0601

###

test system: SK-LU-1; assay: relative viability (nuclei count vs DMSO), 5 days (fraction); higher = more cells survive; conditions: first compound 20 µM
Measured relative viability of individual entries
I'd appreciate a reply containing only the number, no unit.

INSERT INTO assay_data (compound, valuereported) VALUES
  ('Cc1csc(=NC2CCCCC2)n1/N=C/c1ccc(O)c(O)c1O [MIM1] + CC(=O)Nc1cccc(-n2c(=O)n(C3CC3)c(=O)c3c(Nc4ccc(I)cc4F)n(C)c(=O)c(C)c32)c1 [Trametinib] (partner 0.02 µM)', 0.202),
  ('Cc1csc(=NC2CCCCC2)n1/N=C/c1ccc(O)c(O)c1O [MIM1] + CC(=O)c1c(C)c2cnc(Nc3ccc(N4CCNCC4)cn3)nc2n(C2CCCC2)c1=O [Palbociclib] (partner 0.5 µM)', 0.307);

Proceeding to the next compound to report its relative viability.
So what does the record say about relative viability for Cc1csc(=NC2CCCCC2)n1/N=C/c1ccc(O)c(O)c1O [MIM1] + C[C@@H](Oc1cc(-c2cnn(C3CCNCC3)c2)cnc1N)c1c(Cl)ccc(F)c1Cl [Crizotinib] (partner 1 µM) ?
0.843

###

Measured relative viability of individual entries
system: NCI-H3122; experiment: relative viability (nuclei count vs DMSO), 5 days (fraction); higher = more cells survive; conditions: first compound 0.2 µM
I'd appreciate a reply containing only the number, no unit.

// worked examples, relative viability included
INSERT INTO assay_data (molecule, targetortestsystem, valuereported) VALUES
  ('CCNC(=O)c1noc(-c2cc(C(C)C)c(O)cc2O)c1-c1ccc(CN2CCOCC2)cc1 [Luminespib] + Nc1ncn([C@H]2C[C@H](O)[C@@H](CO)O2)c(=O)n1 [Decitabine] (partner 2 µM)', 'NCI-H3122', 0.403),
  ('Cc1csc(=NC2CCCCC2)n1/N=C/c1ccc(O)c(O)c1O [MIM1] + C[C@]1(O)C[C@@H](c2nc(-c3ccc4ccc(-c5ccccc5)nc4c3)c3c(N)nccn32)C1 [Linsitinib] (partner 1 µM)', 'NCI-H3122', 0.959),
  ('CN1CCN(CCOc2cc(OC3CCOCC3)c3c(Nc4c(Cl)ccc5c4OCO5)ncnc3c2)CC1 [Saracatinib] + N=C(N)NC(=N)NCCc1ccccc1 [Phenformin] (partner 250 µM)', 'NCI-H3122', 0.248),
  ('Cc1csc(=NC2CCCCC2)n1/N=C/c1ccc(O)c(O)c1O [MIM1] + NC(=O)Nc1cc(-c2cccc(F)c2)sc1C(=O)N[C@H]1CCCNC1 [AZD7762] (partner 0.2 µM)', 'NCI-H3122', 0.945);

So what does the record say about relative viability for CCNC(=O)c1noc(-c2cc(C(C)C)c(O)cc2O)c1-c1ccc(CN2CCOCC2)cc1 [Luminespib] + NC(=O)Nc1cc(-c2cccc(F)c2)sc1C(=O)N[C@H]1CCCNC1 [AZD7762] (partner 0.2 µM) ?
0.0654

So what does the record say about relative viability for CCNC(=O)c1noc(-c2cc(C(C)C)c(O)cc2O)c1-c1ccc(CN2CCOCC2)cc1 [Luminespib] + Cc1nc(NC(=O)N2CCC[C@H]2C(N)=O)sc1-c1ccnc(C(C)(C)C(F)(F)F)c1 [Alpelisib] (partner 2 µM) ?
0.149

So what does the record say about relative viability for CCNC(=O)c1noc(-c2cc(C(C)C)c(O)cc2O)c1-c1ccc(CN2CCOCC2)cc1 [Luminespib] + Nc1nc2[nH]cc(CCc3ccc(C(=O)N[C@@H](CCC(=O)O)C(=O)O)cc3)c2c(=O)[nH]1 [Pemetrexed] (partner 0.2 µM) ?
0.111

###

system: HCC-15; assay: relative viability (nuclei count vs DMSO), 5 days (fraction); higher = more cells survive; settings: first compound 0.2 µM
Criterion: relative viability strictly under 0.5. Met: 1 (yes). Not met: 0 (no).

INSERT INTO assay_data (compound, qualitativelabel) VALUES
  ('CCNC(=O)c1noc(-c2cc(C(C)C)c(O)cc2O)c1-c1ccc(CN2CCOCC2)cc1 [Luminespib] + O=C(CCCCCCC(=O)Nc1ccccc1)NO [Vorinostat] (partner 1 µM)', '1 (yes)'),
  ('CCNC(=O)c1noc(-c2cc(C(C)C)c(O)cc2O)c1-c1ccc(CN2CCOCC2)cc1 [Luminespib] + C[C@]1(O)C[C@@H](c2nc(-c3ccc4ccc(-c5ccccc5)nc4c3)c3c(N)nccn32)C1 [Linsitinib] (partner 1 µM)', '0 (no)'),
  ('CCNC(=O)c1noc(-c2cc(C(C)C)c(O)cc2O)c1-c1ccc(CN2CCOCC2)cc1 [Luminespib] + Nc1ncn([C@H]2C[C@H](O)[C@@H](CO)O2)c(=O)n1 [Decitabine] (partner 2 µM)', '1 (yes)'),
  ('CN1CCN(CCOc2cc(OC3CCOCC3)c3c(Nc4c(Cl)ccc5c4OCO5)ncnc3c2)CC1 [Saracatinib] + CC1(C)CCC(c2ccc(Cl)cc2)=C(CN2CCN(c3ccc(C(=O)NS(=O)(=O)c4ccc(N[C@H](CCN5CCOCC5)CSc5ccccc5)c(S(=O)(=O)C(F)(F)F)c4)cc3)CC2)C1 [Navitoclax] (partner 0.5 µM)', '0 (no)'),
  ('Cc1csc(=NC2CCCCC2)n1/N=C/c1ccc(O)c(O)c1O [MIM1] + CS(=O)(=O)CCNCc1ccc(-c2ccc3ncnc(Nc4ccc(OCc5cccc(F)c5)c(Cl)c4)c3c2)o1 [Lapatinib] (partner 2 µM)', '0 (no)'),
  ('CN1CCN(CCOc2cc(OC3CCOCC3)c3c(Nc4c(Cl)ccc5c4OCO5)ncnc3c2)CC1 [Saracatinib] + CS(=O)(=O)CCNCc1ccc(-c2ccc3ncnc(Nc4ccc(OCc5cccc(F)c5)c(Cl)c4)c3c2)o1 [Lapatinib] (partner 2 µM)', '0 (no)');

As a next step, examine the compound that follows.
Regarding CN1CCN(CCOc2cc(OC3CCOCC3)c3c(Nc4c(Cl)ccc5c4OCO5)ncnc3c2)CC1 [Saracatinib] + Cc1nc(Nc2ncc(C(=O)Nc3c(C)cccc3Cl)s2)cc(N2CCN(CCO)CC2)n1 [Dasatinib] (partner 0.075 µM) , kindly confirm whether its relative viability is beneath 0.5.
0 (no)

###

system: HOP-62; test: relative viability (nuclei count vs DMSO), 5 days (fraction); higher = more cells survive; conditions: first compound 2.53 µM
parameter: relative viability
I'd appreciate a reply containing only the number, no unit.

INSERT INTO measurements (compound, parameter, valuereported) VALUES
  ('Nc1cccc2c1CN(C1CCC(=O)NC1=O)C2=O (stereo not given) [Lenalidomide] + COc1cccc2cc(-c3nc([C@H]4CC[C@H](C(=O)O)CC4)n4ncnc(N)c34)[nH]c12 [OSI-027] (partner 0.5 µM)', 'relative viability', 0.998),
  ('Nc1cccc2c1CN(C1CCC(=O)NC1=O)C2=O (stereo not given) [Lenalidomide] + C[C@]1(O)C[C@@H](c2nc(-c3ccc4ccc(-c5ccccc5)nc4c3)c3c(N)nccn32)C1 [Linsitinib] (partner 1 µM)', 'relative viability', 0.837),
  ('Nc1cccc2c1CN(C1CCC(=O)NC1=O)C2=O (stereo not given) [Lenalidomide] + CS(=O)(=O)CCNCc1ccc(-c2ccc3ncnc(Nc4ccc(OCc5cccc(F)c5)c(Cl)c4)c3c2)o1 [Lapatinib] (partner 2 µM)', 'relative viability', 1.26),
  ('Nc1cccc2c1CN(C1CCC(=O)NC1=O)C2=O (stereo not given) [Lenalidomide] + Cc1cc(Nc2cc(N3CCN(C)CC3)nc(Sc3ccc(NC(=O)C4CC4)cc3)n2)n[nH]1 [Tozasertib] (partner 0.1 µM)', 'relative viability', 0.352);

So what relative viability did Nc1cccc2c1CN(C1CCC(=O)NC1=O)C2=O (stereo not given) [Lenalidomide] + CS(=O)(=O)N1CCN(Cc2cc3nc(-c4cccc5[nH]ncc45)nc(N4CCOCC4)c3s2)CC1 [Pictilisib] (partner 1 µM) get with HOP-62?
0.922

FYI, the data here is from the supplement of paper PMC10307832.
